The origin of these recorded values is ChEMBL document CHEMBL1165975.

test: Inhibition of bovine brain tubulin polymerization after 20 mins; set-up: species or system Bos taurus
endpoint-label: IC50 (µM)

I = CCN(CC)C(=S)SC(CC(=O)c1ccc(OC)cc1)c1ccccc1Cl (stereo unspecified)
II = CCN(CC)C(=S)SC(CC(=O)c1ccccc1)c1cccc([N+](=O)[O-])c1 (stereo unspecified)
Query string: For this pair, I and II , which shows a numerically higher IC50? State your choice using its label.
Result string: II
(II: 90 µM, I: 10 µM)

---

experiment: Inhibition of bovine brain tubulin polymerization after 20 mins; set-up: species or system Bos taurus
endpoint-label: IC50 (µM)

Guide cases for IC50, answers given:
Query string: In one line, give reported IC50 of the entry COc1cc2c(c(OC)c1OC)-c1ccc(OC)c(=O)cc1[C@@H](NC(C)=O)CC2 [COLCHICINE] .
Result string: 3.2

Query string: Respond only with IC50 recorded for CCN(CC)C(=S)SC(CC(C)=O)c1ccccc1 (centres undefined)
Result string: 250

Query string: State its IC50 for this compound: COc1ccc(/C=C\c2cc(OC)c(OC)c(OC)c2)cc1O [COMBRETASTATIN A4]
Result string: 2.2

P = CCN(CC)C(=S)SC(CC(=O)c1ccc(OC)cc1)c1ccc(OC)cc1 (centres undefined)
Q = CCN(CC)C(=S)SC(CC(=O)c1ccc(OC)cc1)c1ccc(C)cc1 (centres undefined)
R = CCN(CC)C(=S)SC(CC(=O)c1ccccc1)c1ccccc1Cl (centres undefined)
Query string: Please list these in order of increasing IC50. Thank you! Order the labels as requested and list them.
Result string: R, P, Q
(R: 52 µM, P: 84 µM, Q: 180 µM)
